As shown below, each of these compounds has a reported cell count value.
- assay: sensitizers of A549 cells to miR-34 induction, primary screen, imaging, A549 dox-inducible miR-34, nuclei and caspase counts (AID 1347080); further: test concentration not given here
- applied_conditions: A549 miR-34 inducible, Hoechst nuclei count, 48 h; measured here: total cells with miR-34 induction; stronger effect = lower value
Lab note: record just the number, no unit beside it.

Field: example entries. Status: answers known.
The reported value for COc1cc(Nc2c(C#N)cnc3cc(OCCCN4CCN(C)CC4)c(OC)cc23)c(Cl)cc1Cl in terms of cell count is 986

cell count reading for N=c1ccn2c(n1)O[C@H]1[C@H](O)[C@@H](CO)O[C@H]12 : 3040

Continuing:
According to the records, this compound Cc1ccc(-n2nc(C(C)(C)C)cc2NC(=O)Nc2ccc(OCCN3CCOCC3)c3ccccc23)cc1 displays cell count of 7750

get_value(item= COC(=O)[C@@H]1CC2=CC(=O)CC[C@]2(C)[C@@]23O[C@@H]2C[C@@]2(C)[C@@H](CC[C@@]24CCC(=O)O4)[C@H]13 , readout=cell count) returns 9220

Origin of measurements: PubChem BioAssay
